Cited source for all entries: the Human Domainome abundance scans (Beltran et al. 2025)

B1: Histidine--tRNA ligase, cytoplasmic, residues 8 to 45; numbered along this chain, P12081 (parent)
chain: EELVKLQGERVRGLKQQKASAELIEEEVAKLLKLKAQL

- Variants of: B1
- protocol notes: abundance fitness (aPCA) (normalised: wild type 0, dead -1); higher = more abundant; growth selection in yeast, the domain comes from the species named
- run conditions: Homo sapiens

# sequence data, abundance fitness
records = [
    ("EELVKLQGERVRGLKQQKASAELIEEEVKKLLKLKAQL [A29K]", -0.299),
    ("EELVKLQWERVRGLKQQKASAELIEEEVAKLLKLKAQL [G8W]", -0.452),
    ("EELVKLQGERVRGLKQQKASAELIEEEAAKLLKLKAQL [V28A]", 0.177),
    ("LELVKLQGERVRGLKQQKASAELIEEEVAKLLKLKAQL [E1L]", -0.687),
    ("EELVKLQGERVRGLKQQKASAELYEEEVAKLLKLKAQL [I24Y]", 0.131),
    ("EELVKLQGERVRGLKQQKASAELIEEEVASLLKLKAQL [K30S]", -0.218),
    ("EELVKLQPERVRGLKQQKASAELIEEEVAKLLKLKAQL [G8P]", -0.25),
    ("EELVKLQGERVRGLKQQKASAELIEEEVAKELKLKAQL [L31E]", 0.257),
    ("EELVKLQGERVRGLKQQKASQELIEEEVAKLLKLKAQL [A21Q]", 0.039),
    ("EELVKLQGERVRGLKQQKASAELIEEEVAKLVKLKAQL [L32V]", -0.076),
    ("EELVKLQGERVRGLKQQKASAELIEEEVPKLLKLKAQL [A29P]", -0.37),
    ("EELVKLQGERVRGLKQQKASAELIEEEVAKLLKLKACL [Q37C]", -0.057),
    ("EELVKLQGERVRGPKQQKASAELIEEEVAKLLKLKAQL [L14P]", -0.248),
    ("EELVKLQGERVRGLMQQKASAELIEEEVAKLLKLKAQL [K15M]", 0.149),
    ("EELVKLQGERVRGLKQQKASAELIEEEVAKHLKLKAQL [L31H]", -0.144),
    ("EELVKLQGERVRGLKQQKADAELIEEEVAKLLKLKAQL [S20D]", 0.038),
    ("RELVKLQGERVRGLKQQKASAELIEEEVAKLLKLKAQL [E1R]", -0.992),
    ("EELVLLQGERVRGLKQQKASAELIEEEVAKLLKLKAQL [K5L]", -0.394),
    ("EEHVKLQGERVRGLKQQKASAELIEEEVAKLLKLKAQL [L3H]", -0.362),
    ("EELVKLQGERVRGLKQQKASAELIEEEVAKLLKLCAQL [K35C]", 0.383),
    ("EELVKLQGERVRGLKQQKASAELIEEVVAKLLKLKAQL [E27V]", -1.1),
    ("EELVKLQGERVRRLKQQKASAELIEEEVAKLLKLKAQL [G13R]", 0.005),
    ("EELVKLQGERVRGDKQQKASAELIEEEVAKLLKLKAQL [L14D]", -0.24),
    ("EELIKLQGERVRGLKQQKASAELIEEEVAKLLKLKAQL [V4I]", -0.013),
    ("EELVKLQGERVVGLKQQKASAELIEEEVAKLLKLKAQL [R12V]", -0.008),
    ("EELVMLQGERVRGLKQQKASAELIEEEVAKLLKLKAQL [K5M]", -0.143),
    ("EELVKLQQERVRGLKQQKASAELIEEEVAKLLKLKAQL [G8Q]", 0.194),
    ("EELVKLQGEEVRGLKQQKASAELIEEEVAKLLKLKAQL [R10E]", -0.044),
    ("EELVKLQGERVRGLKQQKASAELIEEEVAKNLKLKAQL [L31N]", 0.22),
    ("WELVKLQGERVRGLKQQKASAELIEEEVAKLLKLKAQL [E1W]", -0.537),
    ("EELPKLQGERVRGLKQQKASAELIEEEVAKLLKLKAQL [V4P]", -0.658),
    ("EELVKLQGERVRGLKQQKASAELIEDEVAKLLKLKAQL [E26D]", -0.009),
    ("EELVKLQGERVRGLKQQKASAELIEEEVAKLLKLKATL [Q37T]", -0.113),
    ("EELVKLQGERVRGLKQQKASAELIEEEVAKLLKLKAQR [L38R]", -0.067),
    ("EELVKLIGERVRGLKQQKASAELIEEEVAKLLKLKAQL [Q7I]", -0.526),
    ("EELVKLQGERWRGLKQQKASAELIEEEVAKLLKLKAQL [V11W]", -0.374),
    ("EELYKLQGERVRGLKQQKASAELIEEEVAKLLKLKAQL [V4Y]", 0.077),
    ("EELVKLQGERVRGLNQQKASAELIEEEVAKLLKLKAQL [K15N]", -0.135),
    ("EELVKLQGERVRGLKQQKASAESIEEEVAKLLKLKAQL [L23S]", -0.266),
    ("EELVKLQGERVRILKQQKASAELIEEEVAKLLKLKAQL [G13I]", 0.188),
    ("EELVKLQGERVRGLKFQKASAELIEEEVAKLLKLKAQL [Q16F]", -0.397),
    ("EELVKLQGERVRGLKQQKASAELIEEEVAPLLKLKAQL [K30P]", -0.219),
    ("EELVKLQGERVNGLKQQKASAELIEEEVAKLLKLKAQL [R12N]", -0.022),
    ("EELVKLQGERNRGLKQQKASAELIEEEVAKLLKLKAQL [V11N]", -0.334),
    ("EELVKLQGERVRGLKQQKASAELIEEEVAKLTKLKAQL [L32T]", 0.117),
    ("EELVKLQGERVRGLKQQKASAELIEEEVAALLKLKAQL [K30A]", -0.04),
    ("EELWKLQGERVRGLKQQKASAELIEEEVAKLLKLKAQL [V4W]", -0.468),
    ("EELVKLQGERVRGLKQQKASAELIEEEVAKQLKLKAQL [L31Q]", 0.087),
    ("EELVKLQGERVRGEKQQKASAELIEEEVAKLLKLKAQL [L14E]", 0.053),
    ("EELVKLQGERVRLLKQQKASAELIEEEVAKLLKLKAQL [G13L]", 0.197),
    ("EEIVKLQGERVRGLKQQKASAELIEEEVAKLLKLKAQL [L3I]", -0.086),
    ("EELVKLQGERVRGLKQQKASAELIEEEVAELLKLKAQL [K30E]", 0.1),
    ("EELVKLQGEWVRGLKQQKASAELIEEEVAKLLKLKAQL [R10W]", -0.887),
    ("EELVKLQGERVRGLKQQKACAELIEEEVAKLLKLKAQL [S20C]", -0.09),
    ("EELVKLQGERVRGLKQVKASAELIEEEVAKLLKLKAQL [Q17V]", -0.258),
    ("EELVKLQGERVRGLKQQKASAELIEEEVAKLAKLKAQL [L32A]", 0.227),
    ("EELVKLQGERVRWLKQQKASAELIEEEVAKLLKLKAQL [G13W]", 0.055),
    ("EELFKLQGERVRGLKQQKASAELIEEEVAKLLKLKAQL [V4F]", -0.109),
    ("EELVKLQGERVRGLKQQKASAELIEEEVAKLLNLKAQL [K33N]", -0.203),
    ("EELVKLFGERVRGLKQQKASAELIEEEVAKLLKLKAQL [Q7F]", -0.73),
    ("EELVKLQGERVRGLKQQKASAELIEEEVAKLLKLKAPL [Q37P]", 0.083),
    ("EELVKLQNERVRGLKQQKASAELIEEEVAKLLKLKAQL [G8N]", -0.075),
    ("EELVKLQGERVRGLKQQKASAELIMEEVAKLLKLKAQL [E25M]", -0.184),
    ("EELVKLQGERVRGLKQQKASAELIEEEVAKLLKLKAQM [L38M]", 0.193),
    ("EELVKLQGERVRGTKQQKASAELIEEEVAKLLKLKAQL [L14T]", -0.334),
    ("YELVKLQGERVRGLKQQKASAELIEEEVAKLLKLKAQL [E1Y]", -1.05),
    ("EELVKLQGERVRGLKQQKASAELIEEENAKLLKLKAQL [V28N]", 0.081),
    ("EELVKLQGERVQGLKQQKASAELIEEEVAKLLKLKAQL [R12Q]", 0.101),
    ("EELVKLQGERVRGLKQQKASMELIEEEVAKLLKLKAQL [A21M]", 0.116),
    ("EELVKLQGERVRGLKQQKFSAELIEEEVAKLLKLKAQL [A19F]", -0.384),
    ("EELVKLQGERVRGLKQQKASAELIEEEVAWLLKLKAQL [K30W]", -0.639),
    ("EELVKLQGELVRGLKQQKASAELIEEEVAKLLKLKAQL [R10L]", -0.026),
    ("EELVKLQGERVRGLKQQKASAEQIEEEVAKLLKLKAQL [L23Q]", 0.262),
    ("EELSKLQGERVRGLKQQKASAELIEEEVAKLLKLKAQL [V4S]", -0.264),
    ("EELVKLQGERVRGLKQQKASACLIEEEVAKLLKLKAQL [E22C]", -0.107),
    ("EELVKLQGEIVRGLKQQKASAELIEEEVAKLLKLKAQL [R10I]", -0.035),
    ("EELVKLQGERVRGLKQQKASAELIEEEHAKLLKLKAQL [V28H]", -0.012),
    ("EELVKLQGERVRGLKQQKASAELIEEECAKLLKLKAQL [V28C]", -0.076),
    ("EELVKLQGERVRGLKQQKARAELIEEEVAKLLKLKAQL [S20R]", -0.019),
    ("EELVKLQGERVRGLKQQKASAELIEEEVAKLWKLKAQL [L32W]", -0.098),
    ("EELVKLQGERVRGLKQQKASVELIEEEVAKLLKLKAQL [A21V]", -0.161),
    ("EELVKLQGERVRGLKQQKASAELIEEEVAKLLKLKAQQ [L38Q]", 0.166),
    ("EELVKLQGERVRGLKQQKAYAELIEEEVAKLLKLKAQL [S20Y]", -0.945),
    ("EELVKLAGERVRGLKQQKASAELIEEEVAKLLKLKAQL [Q7A]", -0.348),
    ("EELVKLQGERVRGLKQQKASAELIEEEVAKLLKIKAQL [L34I]", -0.176),
    ("EELVKLQGERVRGLKQQKASAELIEEEVAKLLELKAQL [K33E]", 0.226),
    ("EELVKLQGERVRGLKQQKASAELIEEEVAKLLKLDAQL [K35D]", 0.227),
    ("EELVKLQGERVRGLKQQKASAELICEEVAKLLKLKAQL [E25C]", -0.331),
    ("EELVKLQGERVRGLKQQKASAELIEEEVAKLLKLKANL [Q37N]", -0.04),
    ("EELVKLQGERVRGLKQQKASAYLIEEEVAKLLKLKAQL [E22Y]", -0.288),
    ("EELVKLQGERVRGLKQQKASAELIEEEVAKLHKLKAQL [L32H]", 0.08),
]
